Recorded neutralisation IC50, Wuhan-Hu-1 pseudovirus by entry
target: SARS-CoV-2 Wuhan-Hu-1 RBD (SARS-CoV-2, Wuhan-Hu-1 (GenBank …, UniProt P0DTC2)); experiment: cell-based or functional assay

As a guide, the following entries are already answered.
* JR078 (antibody, V domains shown) VH: VQLVESGGGVVQPGRSLRLSCAASGFIFRSYGMNWVRQAPGKGLEWVAVMSYDGNDKDYADSVKGRFTISRDDSKNTLYLQMNSLRAEDTAVYYCAKSGGLYCSGGNCYSNYFDYWGRGTLVTVSS VL: EIVLTQSPGTLSLSPGERATLSCRASQSVSSSYLAWYQQKPGQAPRLLISGASSRAAGIPDRFSGSGSGTDFTLTISRLAPEDFAVYYCQQYGYSLTFGGGTKVEIK | > 1 µg/mL
* JR072 (antibody, V domains shown) VH: VQLVESGGGVVQPGRSLRLSCAASGFTFSTYGMHWVRQAPGKGLEWVAGISYDGSDKYYGDSVRGRFTVSRDNSKNTLYLQMNSLRAEDTAVYYCAKGQGPYCSAGNCYTHYFDYWGQGTLVTVSS VL: EIVLTQSPATLSLSPGERATLSCRASQSVGNYLAWYQQKPGQAPRLLIDDASNRAAGTPARFSGSGSGTDFTLTISSLEPEDFAVYYCQQRSNWPPITFGQGTRLEIK | > 1 µg/mL

API: the following record is the query input.
Q. What value of measured neutralisation IC50, Wuhan-Hu-1 pseudovirus is listed for JR216 (antibody, V domains shown) VH: QLQLQESGPGLVKPSETLSLTCTVSGGSISSGSYFWGWIRQPPGKGLEWIGNIYNSGSTYYSPSLKSRVTISVNTSKNQFSLKMSSVTAADTAVYYCARQPWLRSQFDYWGQGTLVTVSS VL: NFMLTQPHSVSESPGKTVTISCTGSSGSIASNYVQWYQQRPGSAPTNVIYEDNQRPSGVPDRFSGSIDSSSNSASLTISGLKTEDEADYYCQSYDSSTVVFGGGTKLTVL ?
A. 0.0458 µg/mL
